This listing pairs compounds with measured melting point.
attribute-measured: melting point

* CC(C)(C)OC(=O)NC(Cc1ccc(OC(=O)OCc2ccccc2)cc1)C(=O)O (stereo not given) | 84 to 85 °C
* CC(CO)c1ccc(-c2ccc(F)cc2F)c(O)c1 (stereo not given) | 118 °C
* ON=CNc1nc(OCc2ccc(F)cc2)ncc1F | 169 to 171 °C
* CC(=O)Nc1cc(OCc2ccc3c(c2)OCO3)c(C(=O)CCCCCl)cc1Cl | 108 to 110 °C
* CSC(=NC#N)NCCSCc1cccnc1Nc1ccccc1 | 120 to 123 °C
* CCCCCCc1ccc(C#Cc2ccc(Br)cc2)cc1 | 67 °C
* O=c1c2c(Cc3ccccc3)n[nH]c2c2cccnc2n1-c1cccc(C(F)(F)F)c1 | 226 to 228 °C
* CN(c1nc(-c2cc3ccccc3[nH]c2=O)cs1)S(=O)(=O)c1ccc(Br)cc1 | 280 to 282 °C
* Cc1ccc(-c2ccc(C(=O)Nc3ccc4cc(CN5CCCC5)cnc4c3C)cc2)s1 | 220 to 221 °C
* CC(=O)NC(C)C(=O)Nc1ccc2[nH]cc(C(=O)O)c(=O)c2c1 (stereo not given) | 196 to 200 °C
* COC(=O)c1sccc1NC(=S)N1CCN(c2ncnc3cc(OC)c(OC)cc23)CC1 | 226 to 228 °C
* Cc1ccc(C(=O)c2ccn(C)c2C)cc1 | 80 to 82 °C
* CCOC(=O)C1=C(COCC(C)N=[N+]=[N-])NC(C)=C(C(=O)OC)C1 (stereo not given) | 115 °C
* O=C(Nc1cccc2c1C(=O)c1c-2n[nH]c1C1CCN(C(=O)N2C[C@@H]3C[C@H]2CN3)CC1)NN1CCOCC1 | 196 to 198 °C
* Cc1cccc(C(=O)NO)c1N(C)S(=O)(=O)c1ccc(OCCCCNC(=O)c2cc3ccccc3o2)cc1 | 131 to 134 °C
* CC1CC2C3CCC4=CC(=O)CCC4=C3C(c3ccc(-c4cccnc4)cc3)CC2(C)C1C(=O)C1CC1 (stereo not given) | 206 °C
* CCN(CC)c1ccc2c(c1)[C@@H]1[C@H](C2)c2ccc(N(CC)CC)cc2N1C(C)=O (relative stereo) | 137 to 138 °C
* CCOC(=O)c1ccc(NC(=O)/C=C/c2cnn(C)c2-c2ccc(F)cc2)cc1 | 202 to 203 °C
* CCc1cc(C)cc(CC)c1C1C(=O)C2CC(C3OCCCO3)CC2C1=O (stereo not given) | 100 to 101 °C
* CCCCN1CCCC1=NC(=O)Nc1cccc(Cl)c1 | 94 to 96 °C

====

This listing pairs compounds with measured melting point.
attribute-measured: melting point

• Cc1cc(C)c(NC(=O)N(Cc2ccccc2)CC2(c3ccccc3)CCCC2)c(C)c1 = 212 to 214 °C
• COc1ccc(-c2[nH]nc3c2C(=O)c2c(NC(=O)CN4CCSCC4)cccc2-3)cc1 = 298 °C
• CS(=O)(=O)c1ccc(-n2nc(C(F)(F)F)cc2-c2ccc(-c3cscn3)c(Cl)c2)cc1F = 108 to 110 °C
• O=[N+]([O-])c1ccc(O)c(-c2ccsc2)c1 = 130 °C
• Cc1nc(Br)n(C)c1-c1nc(C2CC2)no1 = 81 °C
• COc1ccc(-n2ccc(O)n2)cc1 = 167 to 170 °C
• Cc1ccnc(Nc2nc(-c3ccc4c(c3)OCCO4)cs2)c1 = 230 to 240 °C
• O=C(Oc1ccc(Cl)cc1[N+](=O)[O-])c1ccccc1O = 155 to 160 °C
• Cc1nc(N)nc(N)c1I = 154 to 156 °C
• CCCc1nn(-c2ccc(C(F)(F)F)cn2)cc1CCCOc1nn(C)cc1CCC(=O)O = 103 to 104 °C

====

This listing pairs molecules with measured melting point.
attribute-measured: melting point

- CC(C)(C)C1=CC(=Cc2ccc([N+](=O)[O-])cc2)C=C(C(C)(C)C)C1=O: 162 to 163 °C
- COc1ccccc1COc1ccc(S(=O)(=O)c2ccc(C)nc2Nc2ccc(S(C)(=O)=O)cc2Cl)cc1: 100 to 102 °C
- CC(C)COc1ccc(S(C)(=O)=O)cc1C(=O)O: 149 to 153 °C
- O=C(O)C(Br)C(O)c1cccc([N+](=O)[O-])c1 (stereo not given): 124 to 125 °C
- Cc1c(Br)c2ccccn2c1C(=O)c1cc(Cl)c(O)c(Cl)c1: 240 °C

====

attribute-measured: melting point

• c1cncc(-c2ccc3nnn(Cc4ccc5ncccc5c4)c3n2)c1 = 208 to 210 °C
• CN(C)c1nc(N(C)C)c2ncn(Cc3ccccc3F)c2n1 = 127 °C
• CC(C)OC(=O)Cc1nc(-c2ccccc2)oc1-c1ccsc1 = 62 to 63 °C
• CCc1ccc2c(c1)CC(=O)N2 = 136 to 137 °C
• COC(=O)Nc1coc2cc(NS(C)(=O)=O)c(Oc3ccccc3)cc2c1=O = 233 to 235 °C
• N#CCc1cccc(-c2ccc3c(c2)C2(CCCCC2)C(=O)N3)c1 = 190 to 193 °C
• CCCc1nc2c(N)nc3ccccc3c2n1CC(C)(C)CC(C)=NOC = 196 to 198 °C
• CCOC(=O)c1cnc2onc(C)c2c1OCC = 62 °C
• O=C(Nc1cccc(OC(F)(F)F)c1)NC1N=C(c2ccccc2F)c2ccccc2N(CC(=O)N2CC3CCC(CC3)C2)C1=O (racemic) = 156 to 164 °C
• COc1cccc(C2CCc3cc(OC)ccc3C2=O)c1 (stereo not given) = 81 to 82 °C

====

attribute-measured: melting point

• CCOC(OCC)c1cc(Nc2ccc(OC)cc2)c(F)c(-c2ccc(Cl)cc2)n1 = 110 to 111 °C
• COC(=O)[C@H](Cc1ccc(NC(=S)NCCc2ccccc2)cc1)NC(=O)[C@@H]1CCCN1S(=O)(=O)c1ccc(C)cc1 = 76 to 81 °C
• COC(=O)C(Cc1ccccc1)Oc1ccc2cc(-c3cnc(-c4cn(C)c5ccccc45)o3)ccc2c1 (stereo unspecified) = 58 to 61 °C
• CN1CCCC1=NC(=O)Nc1ccccc1 = 140 to 144 °C
• Cn1c(CO)c(-c2ccc(F)cc2)c2ccccc21 = 99 to 104 °C
• CC(C)(C)OC(=O)N(CCCCC(=O)c1cc2c3c(c1)CCN3C(=O)CC2)CCc1ccccc1O = 154 to 155 °C
• CC(=O)NCCSc1c(Cl)cc(N)c(C)c1N = 111 °C
• CC(=O)OCC(=O)C1C(C)CC2C3CC(Cl)C4=CC(=O)C=CC4(C)C34OC4CC21C (stereo unspecified) = 189 °C
• CC(C)(C)OC(=O)NC1CNC(=O)C12CC2 (stereo unspecified) = 178 to 181 °C
• COC(=O)Nc1c(Br)cc(S(=O)(=O)N(C)C)cc1Br = 177 to 178 °C
• O=[N+]([O-])c1ccc(Oc2c(Cl)cc(S(=O)(=O)NC(=NO)Nc3ccc(Cl)cc3)cc2Cl)c(Cl)c1 = 180 °C
• CC(=O)SCC(Cc1ccc(F)cc1)C(=O)Nc1cccc(C(=O)O)c1 (stereo unspecified) = 172 to 174 °C
• CCOC(=O)c1sc(Oc2ccc3c(c2)OCC3)c2c1CCc1cnn(C)c1-2 = 137 to 138 °C
• Fc1ccccc1C1=NCc2cncnc2-c2ccc(Cl)cc21 = 122 to 124 °C
• COc1ccc(C2=NNC(=O)C(C)C2)cc1 (stereo unspecified) = 203 to 206 °C
• O=C(Nc1cccc([N+](=O)[O-])c1)NC1N=C(c2ccccc2F)c2ccccc2N(CC(=O)N2CC3CCC(CC3)C2)C1=O (racemic) = 180 to 187 °C
• COc1cc(C=Cc2ccccc2)cc(OC)c1OC = 108 °C
• CCOC(=O)c1ncn2c1CN=C(c1ccccc1Cl)c1cc([N+](=O)[O-])ccc1-2 = 250 to 252 °C
• CNc1ccccc1C(O)c1ccccc1 (stereo unspecified) = 124 to 126 °C
• COC(=O)C1CSC(c2cc3ccccc3n2C)=N1 (stereo unspecified) = 78 to 80 °C
• CCOC(=O)c1cn(-c2ccc(Cl)cc2)c(-c2ccc(Cl)cc2Cl)n1 = 143 to 144 °C
• COC(=O)c1ccc(OCC2CN(c3ccc(N)cc3)C(=O)O2)cc1 (stereo unspecified) = 139 to 142 °C
• COC(=O)c1csc2c(=O)cc(C3CCCCC3)oc12 = 114 to 119 °C
• Cc1ccccc1NC(=N)NC12CC3CC(CC(C3)C1)C2 = 160 to 161 °C
• O=C(O)COc1cccc2c1CCc1sc(S(=O)(=O)C(c3ccccc3F)c3ccccc3F)nc1-2 = 204 to 208 °C
• COC(=O)c1c(C)nc2ccc(Br)cc2c1NCc1ccccc1 = 89 °C
• N#Cc1ccc(N(Cc2ccc3cc(O)ccc3c2)n2cnnc2)cc1 = 281 to 284 °C
• Clc1ccc2c(c1)c(-c1ccccc1)cc1nncn12 = 265 to 266 °C
• CNC(=S)Nc1ccc(NNC=O)cc1 = 176 to 178 °C
• O=C(CC(=O)C(F)(F)F)c1ccc(-n2cccn2)cc1 = 96 °C
• CCN(CC)C(=O)COC(=O)/C=C/C(=O)OC = 53 to 56 °C
• CCCn1c(=O)cc(N)n(-c2ccccc2C)c1=O = 226 to 228 °C
• COc1cc(C)c2ccccc2n1 = 181 to 191 °C
• COC(=O)[C@@H](NC(=O)c1ccc(C#Cc2ccc(C=O)cc2)cc1)[C@@H](C)O = 143 to 144 °C
• CO[C@]1(c2cc(F)cc(Sc3ccc4c(c3)CC/C4=N\O)c2)CCO[C@@H]1C (racemic) = 136 to 137 °C
• NP(=O)(O)CCc1ccccc1 = 226 °C
• CS(=O)(=O)c1ccc(CC(=S)N2CCOCC2)cc1 = 198 to 199 °C
• COc1ccc(-c2cn3c(n2)CCC3)cc1 = 116 to 118 °C
• c1ccc(C(c2ccccc2)(c2ccns2)n2cncn2)cc1 = 235 to 240 °C
• O=C1NC(=O)C(Cc2ccc(SCc3ccccc3)cc2)S1 (stereo unspecified) = 102 to 103 °C
• O=C(NCCO)c1cccc(-c2cccc3nn(Cc4ccc(F)c(F)c4)cc23)c1 = 116 to 117 °C
